System: ERK3
Construct: gene MAPK6
Details: concentration: 1 μM, replicates: in singlicate; n = 1;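 also: KINOMEscan kinase panel screen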
observedProperty: %Inh (%)

> print(dat)
                                    molecule  measuredvalue
 1  Clc1cc(Cl)cc(Nc2ccnc(Nc3cc(Cl)cc(Cl)c3)n2)c1             14
 2  CC(=O)Nc1nc2cnc(Nc3cc(NC(=O)c4cccc(CCC#N)c4)ccc3C)nc2s1              4
 3                CCn1c(-c2ccccn2)nc2cnccc21             14
 4    Fc1cccc(COc2nnc(-c3ccc4c(c3)CCO4)o2)c1              0
 5  CN1C(=O)C(Nc2ccc(Cl)c(C(=O)O)c2)=C(c2ccc(Cl)cc2)C1=O              0
 6  COc1ccc(Nc2nccc(NCCNC(=O)Nc3ccccc3F)n2)cc1              9
 7  O=c1cc(N2CCOCC2)nc2n(Cc3cccc(Cl)c3Cl)ccn12              0
 8  Cl.c1ccc(-c2n[nH]cc2-c2ccnc(-c3ccc(CN4CCOCC4)cc3)c2)nc1              0
 9   O=C1NC(=O)C(N2CCc3ccccc32)=C1c1ccccc1Cl             23
10  COc1ccccc1-c1ccc2c(NC(=O)C3CC3)n[nH]c2n1              0
11  COc1cc2ncnc(Nc3ccc4nc(-c5ccccc5)[nH]c4c3)c2cc1OC.Cl              0
12  Cl.NC(=O)c1cccc(Nc2nccc(Nc3ccc(Oc4cccc(Cl)c4)c(Cl)c3)n2)c1             15
13  CN(C)CCN(C)C(=O)c1cc(-c2ccncc2)c(-c2ccc(Cl)c(O)c2)o1.Cl.Cl              0
14  O=C(Nc1ccc2c(c1)OCO2)NC1CCN(c2ccnc(Nc3ccc(F)cc3)n2)C1 (stereo not shown)             17
15  COc1cc2nccc(Nc3ccc(NC(=O)c4ccc(C)cc4)c(O)c3)c2cc1OC.Cl             13
16  Cc1cccc(-c2nc(Nc3cccc(C(N)=O)c3)c3ccccc3n2)n1             22
17  COc1cccc(-c2cc(-c3c[nH]nc3-c3ccccn3)ccn2)c1             16
18  Cc1cccc(-c2nc(Nc3ccc4[nH]ncc4c3)c3ccccc3n2)n1              0
19  Fc1cc(Cl)ccc1Nc1ccnc2cc(-c3ccc(CN4CCCCC4)o3)ccc12              0

* * *

System: FLT1
Conditions: concentration: 1 μM, replicates: in singlicate; n = 1
observedProperty: %Inh (%)

> print(dat)
                                   molecule  observedproperty  measuredvalue
1  O=C(Nc1n[nH]c2cc(-c3cccc(F)c3F)ccc12)C1CC1              %Inh              0
2  O=C(Nc1n[nH]c2nc(-c3nccs3)c(Br)cc12)C1CCCC1              %Inh             29
3  Cc1cc(-c2ccc3c(c2)CC[C@@H](N[C@@H](C)c2ccccc2)C3)cnc1N.Cl              %Inh             34
4        Cc1cccc(-c2nc(C)cc(Nc3ccncc3)n2)n1              %Inh             32
5  COc1cc(Nc2nccc(N3CCC(NC(=O)Nc4cc(C)ccc4C)C3)n2)cc(OC)c1OC (centres unmarked)              %Inh             22

* * *

System: RIPK1
Conditions: concentration: 1 μM, replicates: in singlicate; n = 1
observedProperty: %Inh (%)

> print(dat)
                                    molecule  measuredvalue
 1  CCCc1ccc(S(=O)(=O)NC2CCN(c3ccnc(Nc4ccc(F)cc4)n3)C2)cc1 (stereo not shown)              0
 2  Cc1ccc(NC(=O)Nc2cccc(Cl)c2)cc1-c1ccc(C(=O)Nc2ccncc2)cc1              5
 3  Cn1ccc2ncnc(Oc3cccc(C(=O)Nc4ccccc4)c3)c21              0
 4  COc1cc2ncnc(Nc3ccc4nc(-c5ccccc5)[nH]c4c3)c2cc1OC.Cl             18
 5  Cc1c(O)cccc1Nc1ccnc2ccc(C(F)(F)F)cc12.Cl              3
 6  CC(C)(C)c1ccc(C(=O)Nc2cn3cc(-c4cccnc4)ccc3n2)cc1             27
 7  O=c1cc(N2CCOCC2)nc2n(Cc3cccc(Cl)c3Cl)ccn12              0
 8  CC(C)(C)c1ccc(C(=O)Nc2cn3cc(Cl)ccc3n2)cc1              0
 9               CCn1c(-c2cccnc2O)nc2cnccc21              0
10              Nc1ncnc2[nH]c(-c3ccccc3)nc12             16
11  Cc1cccc(-c2nc(-c3ccc(S(C)(=O)=O)cc3)sc2-c2ccnc(NCCc3ccccc3)c2)c1              3
12  COc1cc2nccc(Nc3ccc(NC(=O)c4ccc(C)cc4)c(O)c3)c2cc1OC.Cl              4
13  Cc1cc(NCC(c2ccccc2)c2ccccc2)nc(NCc2ccc(C(F)(F)F)cc2)n1              0
14  Cc1cccc(-c2nc(Nc3cccc(C(N)=O)c3)c3ccccc3n2)n1             19
15  Cc1cc(N2Cc3ccccc3C2)nc(Nc2ccc(S(=O)(=O)N3CCOCC3)cc2)n1.Cl              0
16  Cc1nnc(-c2ccc3occ(-c4ccc(S(C)=O)cc4)c3c2)[nH]1 (stereo not shown)            100
17     Cc1cccc(-c2cc(Nc3ccncc3)c3ccccc3n2)n1              0
18    Fc1cccc(COc2nnc(-c3ccc4c(c3)CCO4)o2)c1              0
19  O=C(Nc1n[nH]c2nc(-c3nccs3)c(Br)cc12)C1CC1             15

* * *

Reported %Inh values for a set of compounds
System: IGF1R
Conditions: concentration: 1 μM, replicates: in singlicate; n = 1
observedProperty: %Inh (%)

> print(dat)
                                    compound  unitofmeasurement  measuredvalue
 1  Cc1ccc(NC(=O)Nc2cccc(Cl)c2)cc1-c1ccc(C(=O)Nc2ccncc2)cc1                  %              0
 2    Fc1cccc(COc2nnc(-c3ccc4c(c3)CCO4)o2)c1                  %              2
 3  Cc1c(O)cccc1Nc1ccnc2ccc(C(F)(F)F)cc12.Cl                  %              0
 4        Cc1cccc(-c2nc(C)cc(Nc3ccncc3)n2)n1                  %              5
 5  COc1ccc(C2=C(Nc3cccc(C(=O)O)c3)C(=O)NC2=O)cc1                  %              0
 6  COc1ccccc1CNC(=O)c1cc(C(=O)c2ccccc2C)c[nH]1                  %              7
 7  Cl.O=C(Nc1cccc(-c2nn3ncccc3c2-c2ccnc(Nc3cccnc3)n2)c1)c1c(F)cccc1F                  %             25
 8  Cc1cccc(-c2nc(Nc3ccc4[nH]ncc4c3)c3ccccc3n2)n1                  %              0
 9  Cl.NC(=O)c1cccc(Nc2nccc(Nc3ccc(Oc4cccc(Cl)c4)c(Cl)c3)n2)c1                  %             14
10  Cl.c1ccc(-c2n[nH]cc2-c2ccnc(-c3ccc(CN4CCOCC4)cc3)c2)nc1                  %              0
11  COc1ccc2nc(-c3cccc(C)n3)nc(Nc3ccncc3)c2c1                  %              0
12  Cc1nnc(-c2ccc3occ(-c4ccc(S(C)=O)cc4)c3c2)[nH]1 (centres unmarked)                  %              0
13  Fc1cc(Cl)ccc1Nc1ccnc2cc(-c3ccc(CN4CCCCC4)o3)ccc12                  %             24
14  Cc1c(Cn2ccn3c(=O)cc(N4CCOCC4)nc23)cccc1C(F)(F)F                  %              0

* * *

Reported %Inh values for a set of molecules
Tested on: MEK2
Construct: gene MAP2K2
Conditions: concentration: 1 μM, replicates: in singlicate; n = 1
observedProperty: %Inh (%)

> print(dat)
                                    molecule  observedproperty  measuredvalue
 1                Cc1ccccc1-n1cnc2c(N)ncnc21              %Inh              0
 2  COc1ccc(Nc2nccc(NCCNC(=O)Nc3ccccc3F)n2)cc1              %Inh              8
 3  Cc1cc(NCC(c2ccccc2)c2ccccc2)nc(NCc2ccc(C(F)(F)F)cc2)n1              %Inh              0
 4               CCn1c(-c2cccnc2O)nc2cnccc21              %Inh              0
 5  COc1cc2nccc(Nc3ccc(NC(=O)c4ccc(C)cc4)c(O)c3)c2cc1OC.Cl              %Inh              0
 6  Clc1cc(Cl)cc(Nc2ccnc(Nc3cc(Cl)cc(Cl)c3)n2)c1              %Inh              0
 7  Cc1ccc(NC(=O)Nc2cc(C(C)(C)C)nn2-c2ccccc2)cc1              %Inh              0
 8  Cl.c1ccc(-c2n[nH]cc2-c2ccnc(-c3ccc(CN4CCOCC4)cc3)c2)nc1              %Inh             49
 9  COc1cc(Nc2nccc(N3CCC(NC(=O)Nc4cc(C)ccc4C)C3)n2)cc(OC)c1OC (stereo not shown)              %Inh              0
10  COc1cccc(-c2cc(-c3c[nH]nc3-c3ccccn3)ccn2)c1              %Inh              0
11  CC(C)(C)c1ccc(C(=O)Nc2cn3cc(-c4cccnc4)ccc3n2)cc1              %Inh             36
12  C[C@@H]1CCCCN1c1cc(-c2ccc3c(N)n[nH]c3c2)nc(N)n1              %Inh              0
13  CS(=O)(=O)c1ccc(-c2nc3n(c2-c2ccncc2)CCC3)cc1              %Inh              0
14  COc1ccccc1-c1ccc2c(NC(=O)C3CC3)n[nH]c2n1              %Inh              0
15  Cn1cncc1-c1ccc2ncnc(Nc3ccc(OCc4ccccc4)cc3)c2c1              %Inh              0
16  O=C(Nc1ccc2c(c1)OCO2)NC1CCN(c2ccnc(Nc3ccc(F)cc3)n2)C1 (stereo not shown)              %Inh              0
17  Cc1cccc(-c2nc(Nc3cccc(C(N)=O)c3)c3ccccc3n2)n1              %Inh             27
18  COc1ccc2nc(-c3cccc(C)n3)nc(Nc3ccncc3)c2c1              %Inh              0
19  Fc1cc(Cl)ccc1Nc1ccnc2cc(-c3ccc(CN4CCCCC4)o3)ccc12              %Inh            100
